Origin of the recorded values: the nanobody polyreactivity screen of Harvey et al. (2022)

# test-method-notes: yeast display, Sf9 membrane polyspecificity reagent, FACS + sequencing; frameworks hold sequencing errors
attribute-measured: polyreactivity (PSR sort gate)

>  <sequence-code>
QVRLLETGGGLVQAGGSLRLSCAPSGSTFTDYDMGWYRPAPGKERELVAAITSGGSTNYADSVKGSFTISRDNAKNTVYLQMNRLKPEDTAVYYCAASYWDTEPGYREYDYWGQGTLVTVSS

>  <attribute-measured>
polyreactivity (PSR sort gate)

>  <assay-value>
low polyreactivity

$$$$
>  <sequence-code>
QVQLVESGGGLVQAGGSLRLSCAASGLTFDRYAMGWYRQAPGKERELVAAISGSGSSTYYADSAKGRFTISRDNAKNTVYLQMNSLKPEDTAVYYCAADRDLGYDTRYNYWGQGTQVTVSS

>  <attribute-measured>
polyreactivity (PSR sort gate)

>  <assay-value>
low polyreactivity

$$$$
>  <sequence-code>
QVHLVESGGGLVQAGGSLRLSCAASGSIFFGYTMGWYRQAPGKERELVAAITRRGGSTYYADSVKGRFTISRDNAKNTVYLQMNSLKPVDTAVYYCAAEVRRYVIVPYYYWGQGTQVTVSS

>  <attribute-measured>
polyreactivity (PSR sort gate)

>  <assay-value>
high polyreactivity

$$$$
>  <sequence-code>
QVQLVESGGRLVQAGGSIRLSCAASGRTFYTNAMGWYRQAPGKERELVAAISSGGSTYYADSVKGRFTISRDNAKNTVYLQMNSLKPEDTAVYYCNVRRGGWGYRYYYWGQGTQVTVSS

>  <attribute-measured>
polyreactivity (PSR sort gate)

>  <assay-value>
high polyreactivity

$$$$
>  <sequence-code>
QVQLVESGGGLVQAGGSLRLSCAASGSIFTYYAMGWYRQAPGKERELVAAITWGGSTYADSVKGRFTISRDNAKNTVYLQMNSLKPEDTAVYYCAAQFRSYRYPAYHYDYWGQGTQVTVSS

>  <attribute-measured>
polyreactivity (PSR sort gate)

>  <assay-value>
low polyreactivity

$$$$

----------
# test-method-notes: yeast display, Sf9 membrane polyspecificity reagent, FACS + sequencing; frameworks hold sequencing errors
attribute-measured: polyreactivity (PSR sort gate)

>  <sequence-code>
QVQLVESGGGLVQAGGSLRLSCAASGSTFSRYAMGWYRQAPGKERELVAAISRSGGSTYYADSVKGRFTISRDNAKNTVYLQMNSLKPEDTAVYYCAKVTTYVSAWQGNGYWGQGTQVTVSS

>  <assay-value>
high polyreactivity

$$$$
>  <sequence-code>
QDQHVESGGGLVQAGGSLRLSCAASGIIFYRYAMGWYRQAPGKERELVAAIRRSGGSTFYADSVKGRFTISRDNAKNTVYLQMNCLKPVDTAVYYCAAVYTGDPYGYWGQGTQVTVSS

>  <assay-value>
high polyreactivity

$$$$

----------
# test-method-notes: yeast display, Sf9 membrane polyspecificity reagent, FACS + sequencing; frameworks hold sequencing errors

>  <sequence-code>
QDQHVESGGGLVQAGGSLRLSCAASGFTFPLKAMGWSRQAPGKERELVAVINYSDGSTYYADSVKGRFSISRDNAKNTVYLQMNSLTPEDTAVYYCAARYYTTYYWGQGTQVTVSS

>  <polyreactivity (PSR sort gate)>
high polyreactivity

$$$$
>  <sequence-code>
QFQLVESGGGLVQAGGSLRLSCAASGSTFVYNAMGWDRHAPGKERELVAAISRGGGITYYADSVKGRFTISRDKAKNSVYFQMHSLKPEDTAVYYCQYLSRGLNTYRSSQGDDDYWGHGTQVTVSS

>  <polyreactivity (PSR sort gate)>
high polyreactivity

$$$$
>  <sequence-code>
QVQLVESGGGLVQAGGSLRLSCAASGRILYYYAMGWYRQAPGKERELVAAINSSGGSTYYADSVKGRFTISRDNAKNTVYLQMNSLKPEDTAVYYCAALRGIVLWYPPSYFRYDYWGQGTQVTVSS

>  <polyreactivity (PSR sort gate)>
high polyreactivity

$$$$
>  <sequence-code>
QVQLVESGGGLVQAGGSLRLSCAASGFTFGYNDMGWYRQAPGKERELVAGIRSGDDTNYADSVKGRFTISRDNAKNTVYLQMNSLKPEDTAVYYCAVGYGDYLYYDYDYWGQGTQVTVSS

>  <polyreactivity (PSR sort gate)>
low polyreactivity

$$$$
>  <sequence-code>
QVQLVESGGGLVQAGGSLRLSCAASGRILPRNSMGWSRQAPGKERELVAGISSDGSTKYADSVKGRFTISRDNAKNTVYLQMNSLKPEETAVYYCAADVVYDPNLYGYWGQGTQVTVSS

>  <polyreactivity (PSR sort gate)>
low polyreactivity

$$$$
>  <sequence-code>
QVQLVESGGGLVQAGGSLRLSCAASGLTFYGNAMGWYRQAPGKERELVAAITSNGGSTYYADSVKGRFTISRDNAKNTVYLQMISLKPEDTAVYYCNVDTGYDYWYPGYGYWGQGTQVTVSS

>  <polyreactivity (PSR sort gate)>
low polyreactivity

$$$$
>  <sequence-code>
QVQLVESGGGLVQAGGSLRLICAASGRIIYCNGMGWYRQAPGKERELVAAISSGGSTYYADSVKGRFTISRDNAKNTVYLQMNCLKPEDTAVYYCAADIDYESDRYDYWGQGTQVTVSS

>  <polyreactivity (PSR sort gate)>
low polyreactivity

$$$$
>  <sequence-code>
QVQLVESGGGLVQAGGSLRLSCAASGRTFYSYVMGWYRQAPGKERELVAAIRSSGRTYYADSVKGRFTISRDNAKNTVYLQMNRLTPEDTAVYYCAAYAWVSGSLYDSWGQGTQVTVSS

>  <polyreactivity (PSR sort gate)>
high polyreactivity

$$$$

----------
# test-method-notes: yeast display, Sf9 membrane polyspecificity reagent, FACS + sequencing; frameworks hold sequencing errors

>  <sequence-code>
QVQLEESGVGLVQAGGSLRLSCAASGSIFPAYAMGSYRQAPGKERELLAAITFSGGRTYYADSVKGRLTISRDNAKNTFYLQMNSLKPEDTAVYYCAAYGAPSGTGAKYGYWGQGTQVTVSS

>  <polyreactivity (PSR sort gate)>
low polyreactivity

$$$$
>  <sequence-code>
QVQLVESGGGLVQAGGSLRLSFAASGSTFHYYAMGWYRQAPGKERELVAAINSGARTYYADSVKGRFTISRDNAKNTVYLQMNSLKPEDTAVYYCAADDSYRSIGGDYWGQGTQVTVSS

>  <polyreactivity (PSR sort gate)>
low polyreactivity

$$$$
>  <sequence-code>
QVQLVESGGGLVQAGGSLRLSCAASGRIFGRYAMGWYRQAPGKERELVAAISSGSSTNYADSLKGRFTISRDNAKNTVYLQMNSLKPEDTAVYYCAVVLYRHWWYDYWGQGTQVTVSS

>  <polyreactivity (PSR sort gate)>
high polyreactivity

$$$$
>  <sequence-code>
QVQLVEAGGGLVQAGGSLRLSCAASGRTFTYYTMGWYRQAPGKERELVATITSGGITNYADSVKGRFTISRDNAKNTVYLQMNSLKTEDTAVYYCDKRWVNKYYYWGQGTQVTVSS

>  <polyreactivity (PSR sort gate)>
high polyreactivity

$$$$

----------
# test-method-notes: yeast display, Sf9 membrane polyspecificity reagent, FACS + sequencing; frameworks hold sequencing errors

>  <sequence-code>
QVQLVESGGGLVQAGGSLRLSCAASGNIFITNAMGWYRQAPGKERELVADISFSGGSTNYADSVKGRFTISRDNAKNTVYLQMNSLKPEDTAVYYCAARALASVSAHKYDNWGQGTQVTVST

>  <polyreactivity (PSR sort gate)>
low polyreactivity

$$$$
>  <sequence-code>
QVQLVESGGGLVQAGGSLRLICAASGSIFDWYDMGWYRQAPGKERELVAAITTGGITNYADSVKGRFTFSRDNAKNSVYLQMNSLKPEDTAVYYCNADFSVEFDYWGQGTQVNVSS

>  <polyreactivity (PSR sort gate)>
low polyreactivity

$$$$
>  <sequence-code>
QDQLVESGGGLVQAGGSLRLSCAASGSTFSYNAMGWYRQAPGKERELVAAIRWSGGSTYADSVKGRFTISRDNAKNTVYLQMNSLNPEDTAVYYCAARNFGYPELRYYYWGQGTQVTVSS

>  <polyreactivity (PSR sort gate)>
high polyreactivity

$$$$
>  <sequence-code>
QLQLQESGGGLVQAVVDLRQSCAESVNIFRDYIMGCYRQAPGKELEFVAGIDRGANTNFADSEKGRFTISRDNAKNTVYLQMNSLKPEDTAVYYCAVHTAIVPEFIYWGLGTQVTVSS

>  <polyreactivity (PSR sort gate)>
low polyreactivity

$$$$
>  <sequence-code>
QVQLVESGGGLVPAGGSLLLSCAASGRTIYSYGMGWYRQAPGKERELVASISSSTGSTYYADSVKGRFTISRDNAKNTVYLQMNSLKPEDTAVYYCAKRYSWTRRYDYWGQGTQVTVSS

>  <polyreactivity (PSR sort gate)>
high polyreactivity

$$$$
>  <sequence-code>
QVQLVESGGGLVQAGGSLRLSCAASGRTFSYNAMGWYRQAPGKERELVAVISASGGSTYYADSVKGRFTISRDNAKNTVYLQMNSLKPEDTAVYYCAKRRSPVERYDYWGQGTQVTVSS

>  <polyreactivity (PSR sort gate)>
low polyreactivity

$$$$
>  <sequence-code>
QDQLVESGGGLVQAGGRLRLSCAASVRIFWVNAMGWYRQAPGKERELVAAISWTSGSTYYADSVKGRFTISRDHANNTVYLMMNSLKPEDTAVYYCNKVQSGEYDYWGQGTQVTVSS

>  <polyreactivity (PSR sort gate)>
high polyreactivity

$$$$
>  <sequence-code>
QVQLVESGGGLVQAGGSLRLSCAASGSIFQVYAMGWYRQAPGKEREFVAAISYSGGGTYYADSVKGRFTISRDTAKNTVYLQMNSLKPEDSAVYYCAATEQYGRDSWSSYRIFPPYDDWGQGTQVTVSS

>  <polyreactivity (PSR sort gate)>
low polyreactivity

$$$$
>  <sequence-code>
QVQLVESGGGLVQAGGSLRLSCAASGSTFAHYTMGWYRQAPGKERELVAAITRSGGSTYYADSVKGRFTISRDNAKNKVYLQMNSLKPEDTAVYYCAATRQWNILRYDYWGQCTQVTVSS

>  <polyreactivity (PSR sort gate)>
low polyreactivity

$$$$
>  <sequence-code>
QVQLVESGGGLVQAGGSLRLSCAASVYTIGLYAMGCYRQAPGKEMELVAAMSWSGGSTYYADSVKGPFTISRDNAKKTVYLQMNSLKPEDTAVYYCAAVPYFSLEMGYWGQGTQVTVSS

>  <polyreactivity (PSR sort gate)>
low polyreactivity

$$$$
